experimental_target: CDK2 (Homo sapiens, UniProt P24941)
Construct: host or cells: HEK293-CDK2-Hibit
test_name: HiBit Assay Protocol for CDK2 (HIBIT protein quantification, degradation)
Format: cell-based
protocol_conditions: HEK293-CDK2-Hibit cells, compound treatment for 6 hours, ABS DC50
measurement_name: DC50 (nM)

>>> measured_number("CC1CCCC1N1C(=O)C2(CC2)c2cnc(NC3CCN(S(=O)(=O)N4CCN(C(=O)CCCc5cccc6c5n(C)c(=O)n6C5CCC(=O)NC5=O)CC4)CC3)nc21 (centres unmarked)")
19
>>> measured_number("Cn1nc(N2CCC(=O)NC2=O)c2ccc(C3CCN(Cc4cc(F)cc(S(=O)(=O)N5CCC(Nc6ncc7c(n6)N([C@@H]6CCC[C@@H](O)C6)C(=O)C76CC6)CC5)c4)CC3)cc21")
3.63
>>> measured_number("Cn1nc(N2CCC(=O)NC2=O)c2ccc(C3CCN(Cc4cccc(S(=O)(=O)N5CCC(Nc6ncc7c(n6)N([C@@H]6CCC[C@@H](O)C6)C(=O)C76CC6)CC5)c4)CC3)cc21")
7
>>> measured_number("Cn1nc(N2CCC(=O)NC2=O)c2ccc(C3CCN(CC4CCCN(S(=O)(=O)N5CCC(Nc6ncc7c(n6)N([C@@H]6CCC[C@@H](O)C6)C(=O)C76CC6)CC5)C4)CC3)cc21 (some centres unmarked)")
2.82
>>> measured_number("CC1CCCC1N1C(=O)C2(CC2)c2cnc(NC3CCN(S(=O)(=O)N4CC5(CCCCN5CC5CCN(c6cccc7c6n(C)c(=O)n7C6CCC(=O)NC6=O)CC5)C4)CC3)nc21 (centres unmarked)")
36.1
>>> measured_number("CC1CCCC1N1C(=O)C2(CC2)c2cnc(NC3CCN(S(=O)(=O)C4CCN(C(=O)CCCCCc5cccc6c5n(C)c(=O)n6C5CCC(=O)NC5=O)C4)CC3)nc21 (centres unmarked)")
16
>>> measured_number("CC1CCCC1N1C(=O)C2(CC2)c2cnc(NC3CCN(S(=O)(=O)N4CC5(CCN(C(=O)CCCCCc6cccc7c6n(C)c(=O)n7C6CCC(=O)NC6=O)CC5)C4)CC3)nc21 (centres unmarked)")
5
>>> measured_number("CC1CCCC1N1C(=O)C2(CC2)c2cnc(NC3CCN(S(=O)(=O)N4CC(N(C)C(=O)CCCCCCCCCc5ccc6c(c5)n(C)c(=O)n6C5CCC(=O)NC5=O)C4)CC3)nc21 (centres unmarked)")
16
>>> measured_number("CC1CCCC1N1C(=O)C2(CC2)c2cnc(NC3CCN(S(=O)(=O)N4CC5(CCN(C(=O)CCCCCCCCCc6ccc7c(c6)n(C)c(=O)n7C6CCC(=O)NC6=O)CC5)C4)CC3)nc21 (centres unmarked)")
7
>>> measured_number("CC(c1cccc(S(=O)(=O)N2CC[C@H](Nc3ncc4c(n3)N([C@@H]3CCC[C@@H](O)C3)C(=O)C43CC3)[C@H](F)C2)c1)N1CCN(c2ccc3c(N4CCC(=O)NC4=O)nn(C)c3c2)CC1 (some centres unmarked)")
4.32
>>> measured_number("Cn1nc(N2CCC(=O)NC2=O)c2ccc(C3CCN(Cc4cc(S(=O)(=O)N5CCC(Nc6ncc7c(n6)N([C@@H]6CCC[C@@H](O)C6)C(=O)C76CC6)CC5)ccn4)CC3)cc21")
25.2
>>> measured_number("CC1CCCC1N1C(=O)C2(CC2)c2cnc(NC3CCN(S(=O)(=O)N4CC(N(C)C(=O)CCCCCc5cccc6c5n(C)c(=O)n6C5CCC(=O)NC5=O)C4)CC3)nc21 (centres unmarked)")
6
>>> measured_number("O=C1CCC(N2Cc3cc(N4CCN(Cc5cccc(S(=O)(=O)N6CCC(Nc7ncc8c(n7)N([C@@H]7CCC[C@@H](O)C7)C(=O)C87CC7)CC6)c5)CC4)c(F)cc3C2=O)C(=O)N1 (some centres unmarked)")
47
>>> measured_number("Cn1nc(N2CCC(=O)NC2=O)c2ccc(C3CCN(Cc4cc(S(=O)(=O)N5CCC(Nc6ncc7c(n6)N([C@@H]6CCC[C@@H](O)C6)C(=O)C76CC6)CC5)ccc4F)CC3)cc21")
5.85
>>> measured_number("CN(CCCN1CCC(c2cccc3c2n(C)c(=O)n3C2CCC(=O)NC2=O)CC1)S(=O)(=O)c1ccc(Nc2ncc3c(n2)N([C@@H]2CCC[C@@H](O)C2)C(=O)C32CC2)cc1 (some centres unmarked)")
14
>>> measured_number("Cn1nc(N2CCC(=O)NC2=O)c2ccc(C3CCN(Cc4cccc(S(=O)(=O)N5CCC(Nc6ncc7c(n6)N([C@@H]6CCC[C@@H](O)C6)C(=O)C76CC6)CC5)c4)C(C)(C)C3)cc21 (some centres unmarked)")
2.84
>>> measured_number("CC1CCCC1N1C(=O)C2(CC2)c2cnc(NC3CCN(S(=O)(=O)N4CCN(C(=O)CCCCCCCc5cccc6c5n(C)c(=O)n6C5CCC(=O)NC5=O)CC4)CC3)nc21 (centres unmarked)")
5
>>> measured_number("CC1CCCC1N1C(=O)C2(CC2)c2cnc(NC3CCN(S(=O)(=O)N4CCC5(CCCN5C(=O)CCc5cccc6c5n(C)c(=O)n6C5CCC(=O)NC5=O)C4)CC3)nc21 (centres unmarked)")
17
>>> measured_number("Cn1nc(N2CCC(=O)NC2=O)c2cc(F)c(C3CCN(Cc4cccc(S(=O)(=O)N5CCC(Nc6ncc7c(n6)N([C@@H]6CCC[C@@H](O)C6)C(=O)C76CC6)CC5)c4)CC3)cc21")
3.34
>>> measured_number("CC1CCCC1N1C(=O)C2(CC2)c2cnc(NC3CCN(S(=O)(=O)N4CC5(CCCN(C(=O)CCCCCc6cccc7c6n(C)c(=O)n7C6CCC(=O)NC6=O)C5)C4)CC3)nc21 (centres unmarked)")
7

----------
CCNE1 HIBIT Protein Quantification Maximum by entry:
experimental_target: CCNE1 (Homo sapiens, UniProt P24864)
Construct: host or cells: HEK293-CCNE1-Hibit
Sequence (P24864 whole entry): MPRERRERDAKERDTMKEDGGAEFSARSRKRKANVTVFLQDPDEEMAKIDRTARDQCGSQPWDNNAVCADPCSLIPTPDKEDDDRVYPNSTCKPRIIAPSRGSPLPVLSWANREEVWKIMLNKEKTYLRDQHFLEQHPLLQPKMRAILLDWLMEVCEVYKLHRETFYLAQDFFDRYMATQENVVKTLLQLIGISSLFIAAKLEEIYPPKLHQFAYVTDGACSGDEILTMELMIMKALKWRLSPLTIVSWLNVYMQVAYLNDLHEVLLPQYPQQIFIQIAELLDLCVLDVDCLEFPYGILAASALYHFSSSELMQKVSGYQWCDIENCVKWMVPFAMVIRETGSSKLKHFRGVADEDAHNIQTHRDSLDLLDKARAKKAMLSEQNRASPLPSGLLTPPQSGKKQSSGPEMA
test_name: HiBit Assay Protocol for CCNE1 (HIBIT protein quantification, degradation)
Format: cell-based
protocol_conditions: HEK293-CCNE1-Hibit cells, compound treatment for 6 hours
measurement_name: CCNE1 HIBIT Protein Quantification Maximum (%)

>>> measured_number("CC1CCCC1N1C(=O)C2(CC2)c2cnc(NC3CCN(S(=O)(=O)N4CC(N(C)C(=O)CCCc5ccc6c(c5)n(C)c(=O)n6C5CCC(=O)NC5=O)C4)CC3)nc21 (stereo not shown) [Compound 61]")
29
>>> measured_number("Cn1nc(N2CCC(=O)NC2=O)c2ccc(C3CCN(Cc4cccc(S(=O)(=O)N5CCC(Nc6ncc7c(n6)N([C@@H]6CCC[C@@H](O)C6)C(=O)C76CC6)CC5)n4)CC3)cc21 [Compound 166]")
44
>>> measured_number("CC1CCCC1N1C(=O)C2(CC2)c2cnc(NC3CCN(S(=O)(=O)N4CCN(C(=O)CCCCc5cccc6c5n(C)c(=O)n6C5CCC(=O)NC5=O)CC4)CC3)nc21 (stereo not shown) [Compound 8]")
24.7
>>> measured_number("O=C1CCC(N2Cc3cc(N4CCC(N5CC(Oc6cccc(S(=O)(=O)c7ccc(Nc8ncc9c(n8)N([C@@H]8CCC[C@@H](O)C8)C(=O)C98CC8)cc7)c6)C5)CC4)ccc3C2=O)C(=O)N1 (stereo partly shown) [Compound 127]")
46
>>> measured_number("Cn1nc(N2CCC(=O)NC2=O)c2cc(F)c(C3CCN(Cc4cccc(S(=O)(=O)N5CCC(Nc6ncc7c(n6)N([C@@H]6CCC[C@@H](O)C6)C(=O)C76CC6)CC5)c4)CC3)cc21 [Compound 176]")
45
>>> measured_number("C[C@@H]1CN(c2ccc3c(N4CCC(=O)NC4=O)nn(C)c3c2)CCN1[C@H](C)c1cccc(S(=O)(=O)N2CC[C@H](Nc3ncc4c(n3)N([C@@H]3CCC[C@@H](O)C3)C(=O)C43CC3)[C@H](F)C2)c1 [Compound 191]")
48
>>> measured_number("Cn1c(=O)n(C2CCC(=O)NC2=O)c2ccc(N3CCN(Cc4cccc(S(=O)(=O)N5CCC(Nc6ncc7c(n6)N([C@@H]6CCC[C@@H](O)C6)C(=O)C76CC6)CC5)c4)CC3)cc21 (stereo partly shown) [Compound 179]")
20
>>> measured_number("CC1CCCC1N1C(=O)C2(CC2)c2cnc(NC3CCN(S(=O)(=O)C4CCCN(C(=O)CCCCCc5cccc6c5n(C)c(=O)n6C5CCC(=O)NC5=O)C4)CC3)nc21 (stereo not shown) [Compound 44]")
44
>>> measured_number("CC1CCCC1N1C(=O)C2(CC2)c2cnc(NC3CCN(S(=O)(=O)N4CCC(CN5CCC(c6cccc7c6n(C)c(=O)n7C6CCC(=O)NC6=O)CC5)CC4)CC3)nc21 (stereo not shown) [Compound 14]")
37.7
>>> measured_number("CC1CCCC1N1C(=O)C2(CC2)c2cnc(NC3CCN(S(=O)(=O)N4CCC5(CCN(C(=O)CCc6cccc7c6n(C)c(=O)n7C6CCC(=O)NC6=O)C5)C4)CC3)nc21 (stereo not shown) [Compound 21]")
28
